Hi there, I'd appreciate the recorded z-score for every entry that follows.
- assay_details: E. coli acrAB mutant growth effects, primary screen, E. coli filamentation inducers, strain DRC39, OD650, 24 h (AID 1178);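 further: growth measured as culture turbidity by optical density at 650 nm; test concentration not given here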
- measurement_parameters: higher = more signal, called active from +8 up or from −8 down
Lab note: record just the number, no unit beside it.

Specify reported z-score for the molecule shown: CCCC[C@H]1OB(O)C[C@H]2C1=C(C)C[C@H]1C(=O)N(Cc3ccccc3)C(=O)[C@H]12
1.68

Specify reported z-score for the molecule shown: O=C1c2ccccc2[C@@]2(Cc3ccccc3N(Cc3ccccc3)C2=O)[C@H](c2ccc(CO)cc2)N1C1CCCCC1
0.281

Specify reported z-score for the molecule shown: COCC1=C2[C@@H](CCc3ccccc3)OB(O)C[C@@H]2[C@@H]2C(=O)N(Cc3ccccc3)C(=O)[C@@H]2C1
-0.0682

Specify reported z-score for the molecule shown: Cc1cc(C)c(C(O)C2C=CC3C(=O)N(C)C(=O)C3N2Nc2ccccc2)c(C)c1 (stereo not given)
-0.709

Specify reported z-score for the molecule shown: COc1ccc(C(O)C2C=CC3C(=O)N(c4ccccc4)C(=O)C3N2Nc2ccc([N+](=O)[O-])cc2)cc1OCc1ccccc1 (stereo not given)
-0.908

Specify reported z-score for the molecule shown: C=CCOC(=O)[C@@H]1[C@H]2C(=O)O[C@H](c3ccccc3)[C@H](c3ccccc3)N2[C@H](c2ccc(OCCOC(=O)[C@@H]3C[C@@H]4C(=O)NCC(=O)N4[C@@H]3c3cccc(OCCO)c3)cc2)[C@@]12C(=O)Nc1ccc(I)cc12
0.451

Specify reported z-score for the molecule shown: COC(=O)[C@@]1(Cc2ccc(F)cc2)[C@H]2c3cc(C(=O)N4CCCC4)n(Cc4cccc5ccccc45)c3C[C@H]2CN1C(=O)c1ccccc1
-1.11

Specify reported z-score for the molecule shown: CC(C)N1C(=O)c2ccccc2[C@@H](C(=O)NCCCN(C)C)[C@@H]1c1ccc(CO)cc1
-0.315

Specify reported z-score for the molecule shown: CN1CCC(CCCO)=CC1c1ccc(CN2CCCC2)cc1 (stereo not given)
0.0543

Specify reported z-score for the molecule shown: CC(C)NC(=O)[C@@H]1c2ccccc2C(=O)N(Cc2ccccc2Cl)[C@H]1c1ccc(CO)cc1
0.696

Specify reported z-score for the molecule shown: COCCOC(=O)N1C(=O)[C@@]2(c3cc(C#Cc4ccc(OC)cc4)ccc31)[C@H](C(=O)N1CCN(c3ncccn3)CC1)[C@H]1C(=O)O[C@H](c3ccccc3)[C@H](c3ccccc3)N1[C@@H]2c1ccc(O)cc1
-0.0707

Specify reported z-score for the molecule shown: COCCOC(=O)N1C(=O)[C@@]2(c3cc(C#CCNC(N)=O)ccc31)[C@H](c1ccc(OCCO)cc1)N1[C@H](c3ccccc3)[C@H](c3ccccc3)OC(=O)[C@H]1[C@@H]2C(=O)N1CCc2cc(OC)c(OC)cc2C1
0.583

Specify reported z-score for the molecule shown: O=C1[C@]2(CO)C=C(Br)[C@@H](C[C@@H]2c2ccccc2)[C@@]12CO2
0.613

Specify reported z-score for the molecule shown: COC(=O)c1ccc(C(O)C2C=CC3C(=O)N(c4ccccc4)C(=O)C3N2Nc2ccc(C#N)cc2)o1 (stereo not given)
-1.52

Specify reported z-score for the molecule shown: O=C1O[C@H](c2ccccc2)[C@H](c2ccccc2)N2[C@H]1[C@@H](C(=O)N1CCN(c3ncccn3)CC1)[C@]1(C(=O)Nc3ccccc31)[C@H]2c1ccc(OCCO)cc1
0.774

###

- assay_details: RPMI8226 myeloma cell viability, profiling panel, resazurin fluorescence, basal, 24 h, PK04 Diversity Set (AID 1180);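 further: RPMI8826 multiple myeloma cell line at 5000 cells per well; test concentration not given here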
- measurement_parameters: higher = more signal
Hi there, I'd appreciate the recorded z-score for every entry that follows.
Lab note: record just the number, no unit beside it.

Specify reported z-score for the compound shown: CN1C(=O)C2C=CC(C(O)c3ccccn3)N(Nc3ccccc3)C2C1=O (stereo not given)
-0.878

Specify reported z-score for the compound shown: CCCC[C@@H]1C[C@H]1[C@@H](NC(=O)c1ccc(-c2ccccc2)cc1)c1ccc(-c2ccccc2)cc1
-0.0454

Specify reported z-score for the compound shown: CC(C)N1CC=CC23O[C@@H]4C=CCOC(=O)[C@@H]4[C@H]2C(=O)N(CCO)[C@@H]3C1=O (stereo not given in full)
0.393

Specify reported z-score for the compound shown: [N-]=[N+]=NCc1ccccc1C[C@]1(C(=O)NCC(O)CO)N=C(c2ccc(OCCCO)cc2)O[C@H]1c1ccccc1N=[N+]=[N-] (stereo not given in full)
-0.986

Specify reported z-score for the compound shown: COC(=O)c1ccc(OC)c(/C=C\CC(OC(C)=O)c2ccccc2)c1 (stereo not given)
-1.1

Specify reported z-score for the compound shown: COC(=O)[C@@]1(Cc2ccccc2)[C@H]2c3cc(C(=O)N4CCCC4)n(C)c3C[C@H]2CN1C(=O)c1ccccc1
-0.705

Specify reported z-score for the compound shown: O=C1O[C@H](c2ccccc2)[C@H](c2ccccc2)N2[C@H]1[C@@H](C(=O)N1CCN(c3ncccn3)CC1)[C@]1(C(=O)Nc3ccccc31)[C@H]2c1ccc(OCCO)cc1
0.368

Specify reported z-score for the compound shown: Cc1ccc([C@H]2C(C(=O)O)=C[C@@H](C)N2S(=O)(=O)c2ccc(C)cc2)cc1
-1.52

Specify reported z-score for the compound shown: COCCOC(=O)N1C(=O)[C@@]2(c3cc(C#CC4(O)CCCCCC4)ccc31)[C@H](C(=O)N1CCCCCCC1)[C@H]1C(=O)O[C@H](c3ccccc3)[C@H](c3ccccc3)N1[C@@H]2c1ccccc1OCCO
-0.432

Specify reported z-score for the compound shown: C=CC(=C)C1=CCO[C@@H]1[C@H]1CCCN1S(=O)(=O)c1ccccc1[N+](=O)[O-]
0.187

Specify reported z-score for the compound shown: COCCOC(=O)N1C(=O)[C@@]2(c3cc(C#CCNC(N)=O)ccc31)[C@H](c1ccc(O)cc1)N1[C@H](c3ccccc3)[C@H](c3ccccc3)OC(=O)[C@H]1[C@@H]2C(=O)Nc1nc2ccccc2s1
0.803

Specify reported z-score for the compound shown: COc1ccc(C#Cc2ccc3c(c2)[C@]2(C(=O)N3)[C@H](C(=O)NC[C@H](O)c3ccccc3)[C@H]3C(=O)O[C@H](c4ccccc4)[C@H](c4ccccc4)N3[C@@H]2c2ccccc2OCCO)cc1
-5.2

Specify reported z-score for the compound shown: CC(C)(C)N1CC=CC23O[C@@H]4/C=C\CCCOC(=O)C4[C@H]2C(=O)N(CCO)[C@@H]3C1=O (stereo not given in full)
-0.053

Specify reported z-score for the compound shown: CC(=O)NCCCC[C@@H]1NC(=O)[C@H]2C[C@@H](C(=O)NCCCCCC[N+](C)(C)C)[C@@H](c3cccc(OCCO)c3)N2C1=O
0.0647

Specify reported z-score for the compound shown: O=C1OCCC/C=C\[C@H]2OC34C=CCN(Cn5nnc6ccccc65)C(=O)[C@H]3N(CCCCCO)C(=O)[C@@H]4C12 (stereo not given in full)
0.692

###

- target_of_assay: Follistatin-related protein 3 (Homo sapiens)
- assay_details: FSTL3 binders on small-molecule microarrays, primary screen, biochemical, small-molecule microarray, 635 nm fluorescence (AID 1105);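 further: score merges emission near 667 nm and signal to noise per printed spot across three slides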
- measurement_parameters: FSTL3 binding, higher = more signal
Hi there, I'd appreciate the recorded composite z-score for every entry that follows.
Lab note: record just the number, no unit beside it.

Specify reported composite z-score for the compound shown: O=C1OCCC=C[C@H]2OC34C=CCN(c5ccc6ccccc6c5)C(=O)[C@H]3N(CCCCCO)C(=O)[C@@H]4C12 (stereo partly specified)
-0.662

Specify reported composite z-score for the compound shown: CC(C)Cc1ccc(CN2CC[C@@H](NS(=O)(=O)c3ccccc3)C2)cc1
0.0789

Specify reported composite z-score for the compound shown: C=CCOC(=O)[C@@H]1[C@H]2C(=O)O[C@H](c3ccccc3)[C@H](c3ccccc3)N2[C@H](c2ccc(OCCOC(=O)[C@@H]3C[C@@H]4C(=O)N[C@@H](Cc5ccccc5)C(=O)N4[C@@H]3c3cccc(OCCO)c3)cc2)[C@@]12C(=O)Nc1ccc(I)cc12
1.1

Specify reported composite z-score for the compound shown: COCCOC(=O)N1C(=O)[C@@]2(c3ccccc31)[C@H](C(=O)Nc1nc3ccccc3s1)[C@H]1C(=O)O[C@H](c3ccccc3)[C@H](c3ccccc3)N1[C@@H]2c1ccc(OCCO)cc1
1.11

Specify reported composite z-score for the compound shown: COc1ccc(C(=O)Nc2cccc(CN3C(=O)[C@@]4(O[C@@H](CCn5cc(CCO)nn5)[C@H]([Si](C)(C)c5ccc(OC)cc5)[C@H]4C)c4ccccc43)c2)cc1
1.38

Specify reported composite z-score for the compound shown: CCOC(=O)C1=CCC(c2ccc([N+](=O)[O-])cc2)N(S(=O)(=O)c2ccc(C)cc2)C1 (stereo unspecified)
0.171

###

- target_of_assay: Fibroblast growth factor 2 (Homo sapiens) (UniProt P09038)
- Sequence (P09038 whole entry, looked up): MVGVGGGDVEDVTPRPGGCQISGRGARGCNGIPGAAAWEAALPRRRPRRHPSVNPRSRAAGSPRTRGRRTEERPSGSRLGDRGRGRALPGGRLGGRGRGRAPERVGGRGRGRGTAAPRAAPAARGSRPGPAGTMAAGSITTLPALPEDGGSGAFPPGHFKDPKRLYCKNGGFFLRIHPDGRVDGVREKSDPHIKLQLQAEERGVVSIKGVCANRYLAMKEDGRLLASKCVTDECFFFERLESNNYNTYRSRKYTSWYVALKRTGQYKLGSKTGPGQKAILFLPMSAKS
- assay_details: FGF2 binders on small-molecule microarrays, primary screen, biochemical, small-molecule microarray, 635/667 nm fluorescence (AID 1133)
- measurement_parameters: small-molecule microarray binding, FGF2, fluorescence 635/667; higher = more signal
parameter: composite z-score
Lab note: record just the number, no unit beside it.

Specify reported composite z-score for the molecule shown: O=C1OCCC/C=C\[C@H]2OC34C=CCN(Cn5nnc6ccccc65)C(=O)[C@H]3N(CCCCCO)C(=O)[C@@H]4C12 (some centres undefined)
-1.16

Specify reported composite z-score for the molecule shown: CCCCC=C[C@@H](NC(=O)c1cccs1)c1ccccc1
0.067

Specify reported composite z-score for the molecule shown: O=C1O[C@@H](c2ccccc2)[C@@H](c2ccccc2)N2[C@@H](c3ccccc3OCCO)[C@]3(C(=O)Nc4ccc(C#CC5(O)CCCCCC5)cc43)[C@@H](C(=O)Nc3nc4ccccc4s3)[C@H]12
1.02

Specify reported composite z-score for the molecule shown: C=CC[C@@]1(C(=O)NCC(O)CO)N=C(c2ccc(OCCCO)cc2)O[C@@H]1c1ccccc1N=[N+]=[N-] (some centres undefined)
-0.0851

Specify reported composite z-score for the molecule shown: CC(=O)Nc1cc(Br)ccc1C(=O)O
-0.129

Specify reported composite z-score for the molecule shown: CN1C(=O)C2C(C1=O)C1C=C(CCCO)C2C(c2cccs2)N1C (centres undefined)
0.0096

Specify reported composite z-score for the molecule shown: COCCOC(=O)N1C(=O)[C@@]2(c3cc(C#CCNC(N)=O)ccc31)[C@H](c1ccc(O)cc1)N1[C@H](c3ccccc3)[C@H](c3ccccc3)OC(=O)[C@H]1[C@@H]2C(=O)Nc1nc2ccccc2s1
1.2

Specify reported composite z-score for the molecule shown: O=C1O[C@H](c2ccccc2)[C@H](c2ccccc2)N2[C@H]1[C@@H](C(=O)O)[C@]1(C(=O)Nc3ccc(C#CC4=CCCCC4)cc31)[C@H]2c1ccc(OCCO)cc1
0.919

Specify reported composite z-score for the molecule shown: Cc1ccccc1C(O)C1C=CC2C(=O)N(C)C(=O)C2N1N1CCCCC1 (centres undefined)
0.0201
